System: S. aureus T5592
Experiment: MIC broth microdilution, clinical isolate
Format: cell-based
Conditions: Staphylococcus aureus, 19 h at 35 °C, read-out: minimal inhibitory concentration (MIC)
Please respond with reported MIC for every item in the list.
# number only, unit µg/mL dropped from output

Enquiry: What measured MIC goes with CC1=C(C)C2(C)CC1(C)C1C(=O)N(Nc3nnnn3-c3ccccc3)C(=O)C12 (stereo not shown) [Compound 6] ?
Return: 4

Enquiry: Requested read-out: MIC. Entry: CC(C)C12C=CC(C)(CC1)C1C(=O)N(Nc3nnnn3-c3ccccc3Br)C(=O)C12 (stereo not shown) [Compound 9]
Return: 4

Enquiry: Returns the measured MIC for the input compound. Input: CC1=C(C)C2(C)CC1(C)C1C(=O)N(Nc3nnnn3-c3ccccc3Cl)C(=O)C12 (stereo not shown) [Compound 2]
Return: 0.8

Enquiry: Can you look up the measured MIC of CC1=C(C)C2(C)CC1(C)C1C(=O)N(Nc3nnnn3-c3ccccc3Br)C(=O)C12 (stereo not shown) [Compound 3] for me?
Return: 0.8
